molecular target: Serine protease 1 (Homo sapiens)
Sequence (P07477 whole entry): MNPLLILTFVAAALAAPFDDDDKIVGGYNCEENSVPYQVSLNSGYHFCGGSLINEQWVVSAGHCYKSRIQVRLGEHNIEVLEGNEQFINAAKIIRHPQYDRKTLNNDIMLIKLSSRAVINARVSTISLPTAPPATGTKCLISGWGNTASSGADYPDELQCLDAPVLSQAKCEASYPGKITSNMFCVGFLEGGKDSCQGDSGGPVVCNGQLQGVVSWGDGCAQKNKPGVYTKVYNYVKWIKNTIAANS
pKi: −log10 of the molar value.
Measured Parameter: pKi

N=C(N)c1ccc2cccc(N)c2c1 :: 6.70
COc1ccc2ccc(C(=N)N)cc2c1-c1cnn(S(C)(=O)=O)c1 :: 5.57
CCS(=O)(=O)c1cc(-c2cc(C(=O)Nc3ccccc3)cc3ccc(C(=N)N)cc23)co1 :: 8.46

a: COc1ccc2ccc(C(=N)N)cc2c1C1CCOC1 (configuration not stated)
b: N=C(N)c1ccc2cc(C(=O)Nc3ccccc3)cc(C3CCOC3)c2c1 (configuration not stated)
c: CCS(=O)(=O)c1cc(-c2cc(C(=O)Nc3cccc(OC4CCCC4)c3)cc3ccc(C(=N)N)cc23)co1
d: CCSc1cc(-c2cc(C(=O)Nc3ccccc3)cc3ccc(C(=N)N)cc23)co1
Exercise: Please list the entries, largest pKi first. Give your ranking as a list of the labels in the requested order.
Key: c, d, b, a
(c: 8.52, d: 7.96, b: 7.52, a: 6.49)
